- procedure.details: CellTiter-Glo luminescent readout of SW480 viability loss, NPC library primary (AID 1117343)
- condition.details: CellTiter-Glo luminescence; at 20 µM (top of the series) unless noted
property.name: viability decrease (inhibition) (%)
Please reply with the bare figure in % and do not write the unit itself.

Fill blank: measured viability decrease (inhibition) of the compound `O=C(O)c1cn(C2CC2)c2cc(N3CCNCC3)c(F)cc2c1=O` is ____.
12.3

Fill blank: measured viability decrease (inhibition) of the compound `O=[N+]([O-])c1ccc(O)c2ncccc12` is ____.
112

Fill blank: measured viability decrease (inhibition) of the compound `CC(=C(CCOC(=O)C(C)C)SSC(CCOC(=O)C(C)C)=C(C)N(C=O)Cc1cnc(C)nc1N)N(C=O)Cc1cnc(C)nc1N` is ____.
-6.3

Fill blank: measured viability decrease (inhibition) of the compound `CCN(CC)CCOc1ccc2c(c1)C(=O)c1cc(OCCN(CC)CC)ccc1-2` is ____.
95.3

Fill blank: measured viability decrease (inhibition) of the compound `CCCCc1ncc(/C=C(\Cc2cccs2)C(=O)O)n1Cc1ccc(C(=O)O)cc1` is ____.
-13.7

Fill blank: measured viability decrease (inhibition) of the compound `O=C1NC(=O)[C@@]2(CCOc3ccc(F)cc32)N1` is ____.
-5.9

Fill blank: measured viability decrease (inhibition) of the compound `C=CCNC(N)=S` is ____.
23.8
